Assay Protocol: log P (HPLC/MS data of the preparation examples)
Experimental Conditions: LC-MS, method [b]: pH 2.7 with 0.1% formic acid in water and acetonitrile, linear gradient 10% to 95% acetonitrile
Entries and their measured log p follow.

{"columns": ["Molecule", "log p"],
 "data": [
  ["Cn1cncc1C(=NOCc1nccc(NC(=O)C(C)(C)C)n1)c1ccccc1 [Example 99]", "1.76^[b]"],
  ["CCCCCOC(=O)Nc1cccc(CON=C(c2ccccc2)c2nc(C)cnc2C)n1 [Example 378]", "4.75^[b]"],
  ["CCCCCC(=O)Nc1cccc(CON=C(c2cccs2)c2ncnn2C)n1 [Example 393]", "3.23^[b]"],
  ["Cc1ccccc1C(=NOCc1cccc(N2C(=O)c3ccccc3C2=O)n1)c1ncnn1C [Example 9]", "2.78^[b]"],
  ["Cn1ccnc1C(=NOCc1cccc(NC(=O)OCCF)n1)c1cccc(F)c1 [Example 343]", "1.75^[b]"],
  ["CCCCCC(=O)Nc1cccc(CON=C(c2cccc(C)c2)c2ncnn2C)n1 [Example 21]", "3.71^[b]"],
  ["CCC(C)CC(=O)Nc1cccc(CON=C(c2ccccc2)c2ncnn2C)n1 (centres unmarked) [Example 307]", "3.31^[b]"],
  ["COc1ccc(C(=NOCc2cccc(NC(=O)c3ccccc3)n2)c2ncc(C(F)(F)F)cc2Cl)cc1Br [Example 364]", "5.23^[b]"]
]}

###

Assay Protocol: log P (HPLC/MS data of the preparation examples)
Experimental Conditions: LC-MS, method [b]: pH 2.7 with 0.1% formic acid in water and acetonitrile, linear gradient 10% to 95% acetonitrile
Quick reference for log p among some molecules
Parameter Measured: log p

{"columns": ["Molecule", "Readout Value"],
 "data": [
  ["COc1ccc(C(=NOCc2cccc(NC(=O)C3CC3)n2)c2ncc(C(F)(F)F)cc2Cl)cc1Br [Example 360]", "4.54^[b]"],
  ["Cn1ccnc1C(=NOCc1cccc(NC(=O)CCC2CCCC2)n1)c1cccc(F)c1 [Example 284]", "3.44^[b]"],
  ["Cn1ncnc1C(=NOCc1cccc(NC(=O)Cc2cccc(Cl)c2)n1)c1ccccc1 [Example 313]", "3.5^[b]"],
  ["CCCC(C)C(=O)Nc1cccc(CON=C(c2cccc(F)c2)c2nccn2C)n1 (centres unmarked) [Example 289]", "2.77^[b]"],
  ["CCCCCC(=O)Nc1ccnc(CON=C(c2ccc(C)cc2)c2ncnn2C)n1 [Example 38]", "3.42^[b]"],
  ["CC(C)=C(OC(=O)C(C)C)c1ncc(C(=NOCc2nccc(NC(=O)C(C)C)n2)c2ccccc2)n1C [Example 110]", "2.77^[b]"],
  ["Cn1ncnc1C(=NOCc1cccc(NC(=O)C2CC2c2ccccc2)n1)c1ccccc1 (centres unmarked) [Example 304]", "3.61^[b]"],
  ["CCCC(=O)Nc1ccnc(CON=C(c2ccccc2)c2nccn2C)n1 [Example 58]", "1.68^[b]"],
  ["Cn1ccnc1C(=NOCc1cccc(NC(=O)CCC2CCCC2)n1)c1ccccc1 [Example 281]", "3.19^[b]"],
  ["Cn1ccnc1C(=NOCc1cccc(NC(=O)C(C)(C)C)n1)c1cccs1 [Example 413]", "1.78^[b]"],
  ["Cn1cncc1C(=NOCc1cccc(N2C(=O)c3ccccc3C2=O)n1)c1ccccc1 [Example 90]", "1.81^[b]"],
  ["CSCCC(=O)Nc1cccc(CON=C(c2cccc(F)c2)c2nccn2C)n1 [Example 287]", "2.07^[b]"],
  ["Cc1ncoc1C(=NOCc1csc(N)n1)c1ccccc1 (single isomer, unassigned) [Example 350]", "1.3^[b]"],
  ["Cc1cccc(C(=NOCc2cccc(N)n2)c2ncnn2C)c1 [Example 8]", "1.27^[b]"],
  ["Cn1cncc1C(=NOCc1csc(NC(=O)C(C)(C)C)n1)c1ccccc1 [Example 117]", "1.84^[b]"],
  ["CCOC(=O)Nc1cccc(CON=C(c2ccccc2)c2ncnn2C)n1 [Example 93]", "2.71^[b]"],
  ["CCCCS(=O)(=O)Nc1cccc(CON=C(c2cccc(C)c2)c2ncnn2C)n1 [Example 75]", "3.04^[b]"]
]}
